test: DRUGMATRIX: Phosphodiesterase PDE4 enzyme inhibition (substrate: [3H]cAMP + cAMP); details: u-937; Not Active = under 50% inhibition at 10 µM
Measured Endpoint: Ki

CC1=NN(c2ccccc2)C(=O)C1    Not Active
NC12CC3CC(CC(C3)C1)C2    Not Active
CCOC(=O)c1ncn2c1CN(C)C(=O)c1cc(F)ccc1-2    Not Active
C#C[C@]1(O)CC[C@H]2[C@@H]3CCC4=CC(=O)CC[C@]4(C)[C@H]3CC[C@@]21C    Not Active
CC(=O)Oc1ccccc1C(=O)O    Not Active

Moving on to the next compound.
Asked: For the compound NC(=O)N1c2ccccc2CC(=O)c2ccccc21 [OXCARBAZEPINE] , what Ki is on record?
Given back: Not Active

Reference source for all entries: ChEMBL document CHEMBL1909046
